Target: TopoIIα (Homo sapiens)
Sequence (P11388 whole entry): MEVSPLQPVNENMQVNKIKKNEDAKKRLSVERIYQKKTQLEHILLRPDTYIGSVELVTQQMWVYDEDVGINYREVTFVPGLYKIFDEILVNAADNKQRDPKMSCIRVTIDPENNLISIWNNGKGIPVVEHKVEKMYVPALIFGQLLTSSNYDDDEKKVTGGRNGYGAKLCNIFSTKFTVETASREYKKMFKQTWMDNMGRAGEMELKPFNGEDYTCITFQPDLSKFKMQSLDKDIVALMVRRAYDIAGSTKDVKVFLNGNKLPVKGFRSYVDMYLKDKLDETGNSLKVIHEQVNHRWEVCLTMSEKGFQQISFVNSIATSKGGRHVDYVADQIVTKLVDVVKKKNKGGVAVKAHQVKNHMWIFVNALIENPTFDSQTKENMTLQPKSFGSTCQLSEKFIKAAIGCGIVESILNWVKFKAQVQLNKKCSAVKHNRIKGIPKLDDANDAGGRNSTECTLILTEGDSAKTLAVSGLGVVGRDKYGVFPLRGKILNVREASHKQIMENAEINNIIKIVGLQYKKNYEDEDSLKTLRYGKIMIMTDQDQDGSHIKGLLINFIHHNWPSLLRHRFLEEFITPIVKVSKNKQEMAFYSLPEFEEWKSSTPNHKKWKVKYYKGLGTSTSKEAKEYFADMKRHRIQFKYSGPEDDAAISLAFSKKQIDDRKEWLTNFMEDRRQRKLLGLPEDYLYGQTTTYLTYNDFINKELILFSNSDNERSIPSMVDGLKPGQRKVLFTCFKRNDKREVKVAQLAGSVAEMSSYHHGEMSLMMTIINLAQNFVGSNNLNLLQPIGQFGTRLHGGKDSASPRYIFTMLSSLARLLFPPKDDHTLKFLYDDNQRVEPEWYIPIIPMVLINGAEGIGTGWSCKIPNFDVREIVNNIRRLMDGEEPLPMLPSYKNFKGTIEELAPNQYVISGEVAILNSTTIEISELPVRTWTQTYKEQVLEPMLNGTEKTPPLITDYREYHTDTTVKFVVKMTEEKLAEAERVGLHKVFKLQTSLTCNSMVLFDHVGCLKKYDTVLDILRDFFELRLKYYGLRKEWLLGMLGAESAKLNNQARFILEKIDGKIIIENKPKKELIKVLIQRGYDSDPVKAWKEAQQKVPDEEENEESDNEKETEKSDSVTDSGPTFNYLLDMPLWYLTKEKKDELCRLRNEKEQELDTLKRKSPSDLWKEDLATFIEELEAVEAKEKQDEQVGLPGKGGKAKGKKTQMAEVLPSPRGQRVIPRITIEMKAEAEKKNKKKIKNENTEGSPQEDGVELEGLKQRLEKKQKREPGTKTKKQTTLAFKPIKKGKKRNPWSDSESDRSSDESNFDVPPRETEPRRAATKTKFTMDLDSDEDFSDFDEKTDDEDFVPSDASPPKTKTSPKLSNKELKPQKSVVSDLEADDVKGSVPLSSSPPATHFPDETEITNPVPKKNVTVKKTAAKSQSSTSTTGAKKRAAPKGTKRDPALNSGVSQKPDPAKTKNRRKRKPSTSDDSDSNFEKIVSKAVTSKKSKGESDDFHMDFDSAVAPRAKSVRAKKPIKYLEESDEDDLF
experimentalEndpoint: IC50 (µM)
The figure you give is taken to be in µM; do not add the unit.

Short answer for `Cn1ccc2c(c1=O)C(=O)c1nccc3c1c-2nc1ccccc13` : IC50 was 2
